System: 885512-296-R-J2-PDC complex spheroid viability;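 also: spheroids exposed to the compounds for one week; percent of tumor spheroid viability relative to DMSO vehicle control wells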
assay-details: Anticancer human tumor 885512-296-R-J2-PDC patient-derived breast carcinoma cell line growth inhibition [GQUAD]
condition: second compound 1 µM; first compound 1 µM; active compounds read low
quantity: viability, T/C (%)
A number alone suffices; assume %.

# example entries with known answers
compound	viability, T/C, %
C#Cc1c(F)ccc2cc(O)cc(-c3ncc4c(N5CC6CCC(C5)N6)nc(OCC56CCCN5CC(F)C6)nc4c3F)c12 (stereo not drawn) + Cc1cnc(CNC(=O)c2c(=O)c3ccc(N4CCCN(C)CC4)nc3n3c2sc2ccccc23)cn1	28.2
C=CC(=O)N1CCN(c2nc(=O)n(-c3c(C)ccnc3C(C)C)c3nc(-c4c(O)cccc4F)c(F)cc23)C(C)C1 (stereo not drawn) + Cc1cnc(CNC(=O)c2c(=O)c3ccc(N4CCCN(C)CC4)nc3n3c2sc2ccccc23)cn1	24.1

Field: next compound
So the reported viability, T/C for C=CC(=O)N1CCN(c2nc(=O)n(-c3c(C)ccnc3C(C)C)c3nc(-c4c(O)cccc4F)c(F)cc23)C(C)C1 (stereo not drawn) + Cc1[nH]c2ccc(F)cc2c1-c1nc2c3cccnc3c3ncccc3c2[nH]1 , on 885512-296-R-J2-PDC complex spheroid viability, turned out to be 90
